Listed here are molecules together with their documented pEC50.
molecular target: GABAB(1A,2) receptor heterodimer (Homo sapiens, UniProt O75899+Q9UBS5); construct: membrane preparation; assay: GTPγS35 radioligand filtration-binding assay for determination of PAM potency; conditions: membranes of CHO-K1 cells expressing GABABR1a/GABABR2; GABA dose-response with 10, 1, 0.1 and 0.01 μM PAM; concentration reducing GABA's EC50 by 50%; read-out: Mean (EC50 derived) PAM EC50
Sequence (Q9UBS5 15-961 limits assumed): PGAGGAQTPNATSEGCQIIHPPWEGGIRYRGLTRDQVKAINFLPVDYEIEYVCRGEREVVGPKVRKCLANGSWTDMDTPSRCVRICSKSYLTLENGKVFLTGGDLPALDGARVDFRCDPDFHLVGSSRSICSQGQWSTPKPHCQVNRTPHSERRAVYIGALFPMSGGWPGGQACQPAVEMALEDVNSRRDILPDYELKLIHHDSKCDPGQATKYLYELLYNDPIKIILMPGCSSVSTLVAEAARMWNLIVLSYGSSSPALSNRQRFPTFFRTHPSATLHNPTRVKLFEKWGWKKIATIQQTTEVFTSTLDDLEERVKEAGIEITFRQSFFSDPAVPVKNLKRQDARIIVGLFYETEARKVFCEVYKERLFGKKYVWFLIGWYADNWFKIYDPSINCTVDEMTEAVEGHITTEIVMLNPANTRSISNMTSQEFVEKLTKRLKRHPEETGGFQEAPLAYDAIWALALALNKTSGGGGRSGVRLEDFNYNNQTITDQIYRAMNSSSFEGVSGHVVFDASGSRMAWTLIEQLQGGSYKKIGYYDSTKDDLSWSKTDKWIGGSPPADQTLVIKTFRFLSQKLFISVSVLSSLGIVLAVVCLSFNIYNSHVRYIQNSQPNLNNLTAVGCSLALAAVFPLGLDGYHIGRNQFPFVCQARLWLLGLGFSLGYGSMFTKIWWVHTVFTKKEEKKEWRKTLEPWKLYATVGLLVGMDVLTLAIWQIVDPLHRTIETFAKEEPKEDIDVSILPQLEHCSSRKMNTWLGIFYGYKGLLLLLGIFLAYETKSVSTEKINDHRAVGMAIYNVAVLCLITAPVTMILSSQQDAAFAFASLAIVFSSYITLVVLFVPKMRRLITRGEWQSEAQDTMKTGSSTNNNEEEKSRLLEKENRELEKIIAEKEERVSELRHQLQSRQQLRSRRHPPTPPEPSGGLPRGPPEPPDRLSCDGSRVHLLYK
Sequence (O75899 42-941): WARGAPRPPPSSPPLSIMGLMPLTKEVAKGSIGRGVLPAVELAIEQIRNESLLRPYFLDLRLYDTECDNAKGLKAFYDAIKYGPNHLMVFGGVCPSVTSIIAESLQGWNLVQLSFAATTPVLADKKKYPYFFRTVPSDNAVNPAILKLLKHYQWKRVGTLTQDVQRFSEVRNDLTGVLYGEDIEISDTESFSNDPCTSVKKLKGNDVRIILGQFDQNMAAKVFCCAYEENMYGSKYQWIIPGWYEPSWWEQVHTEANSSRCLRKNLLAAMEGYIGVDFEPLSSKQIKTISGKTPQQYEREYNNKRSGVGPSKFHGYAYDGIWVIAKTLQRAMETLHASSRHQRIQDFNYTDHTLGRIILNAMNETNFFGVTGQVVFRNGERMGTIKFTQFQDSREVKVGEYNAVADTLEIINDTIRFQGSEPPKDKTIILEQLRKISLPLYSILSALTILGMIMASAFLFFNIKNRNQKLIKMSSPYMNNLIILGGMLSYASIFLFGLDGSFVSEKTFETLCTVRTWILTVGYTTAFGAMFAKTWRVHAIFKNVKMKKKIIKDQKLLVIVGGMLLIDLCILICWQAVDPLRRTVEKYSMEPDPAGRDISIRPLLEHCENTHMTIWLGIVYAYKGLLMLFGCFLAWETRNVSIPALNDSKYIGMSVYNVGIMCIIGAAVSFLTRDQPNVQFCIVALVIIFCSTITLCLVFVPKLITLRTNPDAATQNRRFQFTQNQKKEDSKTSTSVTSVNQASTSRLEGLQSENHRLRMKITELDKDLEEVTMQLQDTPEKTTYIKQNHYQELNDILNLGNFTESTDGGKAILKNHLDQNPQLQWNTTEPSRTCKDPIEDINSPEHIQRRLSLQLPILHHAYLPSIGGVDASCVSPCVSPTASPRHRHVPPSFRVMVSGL
pEC50: −log10 of the molar value.

[
  {
    "molecule": "Cc1nc2ccc(Br)cc2c(-c2ccc(F)cc2)c1C(C)Oc1ccc(Cl)cc1 (stereo not shown)",
    "pEC50": 5.04
  },
  {
    "molecule": "Cc1nc2ccc(N3CCCCC3)cc2c(-c2ccc(F)cc2)c1C(=O)OC(C)(C)C",
    "pEC50": 4.74
  },
  {
    "molecule": "Cc1nc2ccc(N3CCCCC3)cc2c(-c2ccc(F)cc2)c1C(C)Oc1ccc(Cl)cc1 (stereo not shown)",
    "pEC50": 4.62
  },
  {
    "molecule": "Cc1nc2ccc(Br)cc2c(-c2ccc(F)cc2)c1C(=O)OC(C)(C)C",
    "pEC50": 5.51
  }
]
